# Experimental Target: DGCR8Δ (UniProt Q8WYQ5)
# Sequence: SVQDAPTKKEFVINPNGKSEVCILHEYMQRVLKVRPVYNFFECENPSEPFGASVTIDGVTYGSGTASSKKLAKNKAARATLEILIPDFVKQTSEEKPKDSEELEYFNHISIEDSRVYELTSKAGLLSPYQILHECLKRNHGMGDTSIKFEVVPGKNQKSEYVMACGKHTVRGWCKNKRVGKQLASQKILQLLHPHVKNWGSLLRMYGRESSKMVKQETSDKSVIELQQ
# Measurement Description: EMSA
# Condition Description: 2 mM Mg2+, 2 mM Ca2+; EMSA: 20 mM HEPES pH 7.5, 110 mM KCl, 110 mM NaCl, 0.1% BSA, 2 mM MgCl2, 2 mM CaCl2, 0.05% Tween-20, 5 mM DTT, 15 min, room temperature; native 5% PAGE
pKd: −log10 of the molar value.

{"columns": ["Seq Text", "pKd"],
 "data": [
  ["AUUCUAUUCUAUUCUAUUCUAUUCUAUUCUAUUCUAUUCUAUUCUAUUCUAUUCU [r(AUUCU)11]", 5.80]
]}

Where do the numbers come from? From paper PMC4895354.
